Listed below: TGI values for each entry.
# Test system: SF-295 CNS
# Assay Procedure: NCI tumour cell line growth inhibition, 48 h
Quantity Name: TGI

1. Cc1cc(O)c2cc3c(O)c(O)ccc3cc2c1 :: 10.8 µM
2. C=CCN1C(=O)/C(=C/c2ccccc2)N=C1SC1OC(COC(C)=O)C(OC(C)=O)C(OC(C)=O)C1OC(C)=O (stereo not given) :: > 100 µM
3. O=c1c2cc(Br)ccc2[nH]c(=S)n1-c1ccccc1 :: > 100 µM
4. O=C1NC(=O)C(N2CCc3ccccc32)=C1c1ccc(Cl)cc1 :: > 25 µM
5. O=S1CCN(Cc2ccc(-c3ccc4ncnc(Nc5ccc(OCc6ccccc6)c(F)c5)c4c3)o2)CC1 :: > 22.1 µM

---

Listed below: TGI values for each entry.
# Test system: HOP-18 NSCLC
# Assay Procedure: NCI tumour cell line growth inhibition, 48 h
Quantity Name: TGI (µM)

1. CC1C(O)[C@@]2(OC[C@@]34C(=O)CC5(O)[C@H](CCC6Cc7nc8c(nc7C[C@]65C)CC5CC[C@@H]6C7=C[C@H]9O[C@@]%10(O[C@@](C)(CO)C[C@@H]%10O)C(C)[C@@]9(O)[C@]7(C)[C@@H](O)CC6[C@]5(C)C8)C3=CC[C@H]4C2C)OC1(C)C (some centres undefined) :: 3.43
2. O=C1C=CC(=O)c2c1cc1ccccc1c2O :: 32.3

---

Listed below: TGI values for each entry.
# Tested on: HCT-15 colon
# Assay Procedure: NCI tumour cell line growth inhibition, 48 h
Quantity Name: TGI

1) COc1cccc(C(C#N)NC23CC4CC(CC(C4)C2)C3)c1 (stereo not given) :: > 100 µM
2) O=[N+]([O-])c1ccc(OP(=O)(O)OCC2OC(CP(=O)(O)O)C(O)C2O)cc1 (stereo not given) :: > 100 µM
3) CCSC1=C(C#N)C2(CCCCC2)C2=C(CC(C)(C)CC2=O)N1 :: > 100 µM
4) O=NN(CCCl)C(=O)Nc1ccc(Cl)c(Cl)c1 :: > 100 µM
5) c1csc(-c2sc(-c3ccsc3)cc2Cc2ccsc2)c1 :: > 10 µM

---

Listed below: TGI values for each entry.
# Test system: SNB-75 CNS
# Assay Procedure: NCI tumour cell line growth inhibition, 48 h
Quantity Name: TGI

1) CCNC(=S)Nc1c(C#N)c2n(c1C(=O)OCC)CCCCC2 :: > 100 µM
2) NS(=O)(=O)c1cccc(-c2cc3ccncc3cc2OCc2ccccc2)c1 :: > 25 µM
3) O=C(O)CN(CC(=O)O)c1ccccc1 :: > 100 µM
4) CN(C(=O)C12C3C4C1C1C2C3C41C(=O)N(C)C(C)(C)C)C(C)(C)C (centres undefined) :: > 50 µM

---

# System: MDA-MB-231 breast
# Assay Procedure: NCI tumour cell line growth inhibition, 48 h
Quantity Name: TGI

1) NC(CCC(=O)NC(CSC(=O)N(O)c1ccc(Cl)cc1)C(=O)NCC(=O)O)C(=O)O (stereo not drawn) :: > 0.5 µM
2) CC[C@@]1(O)C(=O)OCc2c1cc1n(c2=O)Cc2cc3c(Cl)c4c(cc3nc2-1)OCO4 :: > 100 µM
3) CC(=O)O[C@@H]1[C@@H](C)[C@]2(CC(c3ccoc3)OC2O)C2CCC3O[C@]3(C)[C@]2(C)[C@@H]1OC(C)=O (stereo partly drawn) :: > 100 µM
4) CCOC(=O)c1c(SC)nc(-c2ccc(Cl)cc2)sc1=N :: > 100 µM
5) CCCC1=NC(C(F)(F)F)(C(F)(F)F)N=C(N2CCOCC2)O1 :: > 100 µM
6) CCn1c(SCC(=O)NNC(=S)Nc2ccc(Cl)cc2)nc2ccccc2c1=O :: > 100 µM
7) O=C(Nc1ccc(Cl)cc1Cl)c1cc2nc3ccccc3c(=O)n2c2ccccc12 :: > 10 µM
8) CCc1cccc(C(C)C)c1NC1=C([n+]2ccc(C)cc2)C(=O)c2ccccc2C1=O :: > 34.7 µM
9) CCOC(=O)C(Cc1ccc2c(c1)CCC2)Cc1ccc2c(c1)CCC2 :: > 100 µM
10) O=C(Nc1sccc1S(=O)(=O)c1ccc(Cl)cc1)c1ccc(Cl)cc1Cl :: > 100 µM
11) c1csc(-c2cscc2-c2cccs2)c1 :: > 100 µM
12) N#Cc1nc(-c2ccccc2O)oc1N :: > 100 µM
13) CC1=C(S(=O)c2ccc(C)cc2)CCC2(CCCCO2)O1 (stereo not drawn) :: > 100 µM

---

# System: CCRF-CEM leukemia
# Assay Procedure: NCI tumour cell line growth inhibition, 48 h
Listed below: TGI values for each entry.
Quantity Name: TGI

1. NS(=O)(=O)c1cccc(-c2cc3ccncc3cc2OCc2ccccc2)c1 :: > 25 µM
2. CC1(C)CC(=O)C(CC2C(=O)c3ccccc3C2=O)C(=O)C1C(=O)C(=O)Nc1cccc2ccc(O)cc12 (stereo not given) :: > 100 µM
3. O=C(Nc1sccc1S(=O)(=O)c1ccc(Cl)cc1)c1ccc(Cl)cc1Cl :: > 100 µM
4. COC1=CCC2=C(CCN(C(=O)C3CC3)C2Cc2ccc(OC)c(O)c2)C1 (stereo not given) :: > 100 µM
5. CC(=O)OCC1=C2C(OC(=O)C(C)C)CC3(COC(C)=O)OC3/C=C\C3(C)OC3C2OC1=O (stereo not given) :: > 100 µM

---

# System: NCI-H23 lung
# Assay Procedure: NCI tumour cell line growth inhibition, 48 h
Listed below: TGI values for each entry.
Quantity Name: TGI

1) CC(C)(C)c1cc(Oc2ccc(C#N)c(C#N)c2)cc(C(C)(C)C)c1 :: > 100 µM
2) C/C(=C\CCc1ccsc1)CC/C=C(\C)CCCN1CCN(CCO)CC1 :: 13.4 µM
3) C[C@]12CC[C@H]3[C@@H](CC=C4C[C@@H](O)CC[C@@]43C)[C@@H]1C[C@H](N1CCOCC1)[C@@H]2O :: > 100 µM

---

# Test system: UACC-257 melanoma
# Assay Procedure: NCI tumour cell line growth inhibition, 48 h
Quantity Name: TGI

1) Nc1ncnc2c1nc(N)n2C1OC(CO)C(O)C1O (configuration not stated) :: 0.857 µM
2) O=C(N/N=C/c1ccncc1)c1ccc(C(F)(F)F)nc1Nc1cccc(C(F)(F)F)c1 :: 10.6 µM
3) NC(=O)c1ccccc1NC(=O)C(=O)Nc1n[nH]c(N)n1 :: > 100 µM
4) Cc1cc(O)c2c(c1)C(=O)C=C(Br)C2=O :: 26.5 µM
5) CC(=O)OCC1OC(N2C(=O)CC(N)=Nc3ccccc32)C(OC(C)=O)C(OC(C)=O)C1OC(C)=O (configuration not stated) :: > 100 µM
6) O=NN(CCCl)C(=O)Nc1ccc(Cl)c(Cl)c1 :: > 100 µM
7) CCCC(=O)n1[nH]c(=O)n(C(C)(C)C)c1=O :: > 100 µM
8) Cn1c2c(c3ccccc31)CC(=O)N1CCCC(C1)CC21OCCO1 (configuration not stated) :: > 100 µM
9) O=C(O)c1ccccc1-c1ccccc1C(=O)Nc1ccc2c(c1)Cc1ccccc1-2 :: 78.3 µM
10) COC[C@@H]1Cc2cc(OC)c3c(c2[C@H](c2ccc(OC)c(OC)c2)[C@H]1COC)OCO3 :: > 100 µM
11) CC(C)[Si](Oc1cc2c3c(ccc2c(O)c1[C@@H](C)CO[Si](C)(C)C(C)(C)C)C(C)(C)CCC3)(C(C)C)C(C)C :: > 100 µM
12) O=C(/C=C/c1cc(F)ccc1F)OCCc1ccccc1 :: > 100 µM

---

# Tested on: COLO 205 colon
# Assay Procedure: NCI tumour cell line growth inhibition, 48 h
Listed below: TGI values for each entry.
Quantity Name: TGI

1) C=CCC1(O)C(=O)OC2C(O)COC21O (stereo not drawn) :: > 100 µM
2) CC[C@@]1(O)C(=O)OCc2c1cc1n(c2=O)Cc2cc3c(Cl)c4c(cc3nc2-1)OCO4 :: > 100 µM
3) Cc1cc(CN(Cc2ccccc2)Cc2nc3ccccc3[nH]2)c(O)c(CN(Cc2nc3ccccc3[nH]2)Cc2nc3ccccc3[nH]2)c1 :: > 55.1 µM

---

Listed below: TGI values for each entry.
# System: LOX IMVI melanoma
# Assay Procedure: NCI tumour cell line growth inhibition, 48 h
Quantity Name: TGI

1. C=CCC1(O)C(=O)OC2C(O)COC21O (stereo not drawn) :: > 100 µM
2. Cc1ccc(SC2C(C)(C)N(C(C)C)P2(=O)N(C(C)C)C(C)C)cc1 (stereo not drawn) :: > 59.9 µM
3. Cc1ccc(S(=O)(=O)Nn2c(C)cc3ccc(S(=O)(=O)Nc4ccccc4[N+](=O)[O-])cc3c2=O)cc1 :: > 100 µM

---

Listed below: GI50 values for each entry.
# Test system: NCI-H23 lung
# Assay Procedure: NCI tumour cell line growth inhibition, 48 h
Quantity Name: GI50

1) C=C1C(=O)O[C@H]2[C@H]1CC/C(COC(=O)c1cccc3ccccc13)=C\CC[C@@]1(C)O[C@@H]21 :: 1.78 µM
2) COc1ccc(-c2nnc(Nc3nc(O)c(C4=c5cc(OC(F)(F)F)ccc5=NC4=O)s3)o2)cc1 :: 14.1 µM
3) Nc1nccc2c1ncn2C1C=C(CO)C(O)C1O (stereo not given) :: 269 µM
4) NS(=O)(=O)c1cccc(-c2cc3ccncc3cc2OCc2ccccc2)c1 :: > 18.4 µM
5) CCCCCCCCCCCCNC(=O)[C@H]1CSC(c2cc(Br)cs2)N1 (stereo not given in full) :: 1.53 µM
